- Test system: brain
- assay: Maturation of TTM-001 capsid, NGS enrichment in brain of CD-1 Outbred mice
- Type: in vivo
- conditions: NGS fold-enrichment of TTM-001 matured AAV capsid variants in the brain of CD-1 Outbred mice; intravenous 1.0×10^12 VG/dose; 14 days in life; RNA; relative to non-matured TTM-001 control
recorded.metric: Fold enrichment over TTM-001 (fold)
Kindly provide the numeric value in fold only, without the unit symbol.

# chain.sequence, Fold enrichment over TTM-001 / fold
measured = [
    ("KTINGQRSPHSKAQNQQT", 2.590),
    ("KTINGSGSPHCLSQNQQT", 2.114),
    ("KTINGSGSPHSKAFRPQT", 2.499),
    ("KTINGSGSPHCSLQNQQT", 4.540),
    ("KTINGSGSPHSKASKQQT", 2.069),
]

Incoming: Endpoint output: Fold enrichment over TTM-001 of KTINGSGSPHTKWQNQQT . Value?
Outgoing: 2.222

Incoming: Then what about the sequence KTINGSGSPHSKRMSQQT ?
Outgoing: 2.931

Incoming: Then what about the sequence KTINGSGSPHSKVARQQT ?
Outgoing: 2.136

Incoming: Then what about the sequence KTINGSGSPHLTWQNQQT ?
Outgoing: 2.637

Incoming: Then what about the sequence KTINGSGSPHSKPWLQQT ?
Outgoing: 2.138
